Entries and their measured activation at 3 µM follow.
# Experimental System: GlunN1/GluN2A glutamate receptors (Homo sapiens, UniProt Q05586+Q12879)
# Construct: expressed in transfected cells
# Sequence (Q12879 23-1464, other chains not shown): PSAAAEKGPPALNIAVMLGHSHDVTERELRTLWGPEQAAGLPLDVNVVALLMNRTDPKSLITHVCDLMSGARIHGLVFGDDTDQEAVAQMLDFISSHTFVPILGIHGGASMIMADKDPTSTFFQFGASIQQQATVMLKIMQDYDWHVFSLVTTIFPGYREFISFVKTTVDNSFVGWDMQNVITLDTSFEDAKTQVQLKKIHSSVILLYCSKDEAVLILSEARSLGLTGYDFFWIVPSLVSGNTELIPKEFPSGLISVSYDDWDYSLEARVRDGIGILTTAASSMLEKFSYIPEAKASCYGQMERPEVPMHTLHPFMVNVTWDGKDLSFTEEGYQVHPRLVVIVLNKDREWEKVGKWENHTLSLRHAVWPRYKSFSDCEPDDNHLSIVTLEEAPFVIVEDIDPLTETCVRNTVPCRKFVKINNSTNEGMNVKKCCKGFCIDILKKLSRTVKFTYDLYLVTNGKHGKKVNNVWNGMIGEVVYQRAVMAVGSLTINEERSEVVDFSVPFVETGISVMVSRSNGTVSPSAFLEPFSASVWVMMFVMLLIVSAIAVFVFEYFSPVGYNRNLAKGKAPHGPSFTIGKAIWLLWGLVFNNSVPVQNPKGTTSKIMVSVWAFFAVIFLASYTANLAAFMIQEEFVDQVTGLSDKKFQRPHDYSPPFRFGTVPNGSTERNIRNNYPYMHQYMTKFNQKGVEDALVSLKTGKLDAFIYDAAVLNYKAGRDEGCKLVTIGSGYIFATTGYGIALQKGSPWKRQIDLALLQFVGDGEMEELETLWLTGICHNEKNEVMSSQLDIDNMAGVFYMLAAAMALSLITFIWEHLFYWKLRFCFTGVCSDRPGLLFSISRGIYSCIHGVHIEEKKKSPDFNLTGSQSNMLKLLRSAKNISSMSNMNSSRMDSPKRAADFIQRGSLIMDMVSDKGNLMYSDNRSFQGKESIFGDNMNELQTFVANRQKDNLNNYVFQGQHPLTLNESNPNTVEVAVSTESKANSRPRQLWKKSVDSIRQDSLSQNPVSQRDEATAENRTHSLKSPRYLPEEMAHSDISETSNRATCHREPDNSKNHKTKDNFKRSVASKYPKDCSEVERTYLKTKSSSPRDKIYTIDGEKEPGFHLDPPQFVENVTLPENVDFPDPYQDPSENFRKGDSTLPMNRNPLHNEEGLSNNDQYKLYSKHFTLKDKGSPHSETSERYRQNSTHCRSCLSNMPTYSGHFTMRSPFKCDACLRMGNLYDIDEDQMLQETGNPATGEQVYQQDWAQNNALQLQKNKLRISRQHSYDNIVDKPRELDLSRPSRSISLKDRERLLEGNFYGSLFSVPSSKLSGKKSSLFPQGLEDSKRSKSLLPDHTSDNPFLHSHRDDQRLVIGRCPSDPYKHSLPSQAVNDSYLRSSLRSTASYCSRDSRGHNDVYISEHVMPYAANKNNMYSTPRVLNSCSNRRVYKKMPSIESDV
# Protocol Summary: cell-based
# Test Settings: 3 μM test article; HEK293 cells expressing human GRIN1/GRIN2A; co-application with EC20 L-glutamate and 30 μM glycine; read-out: GluN2A PCA IWB Ephys % potentiation at 3 μM
# Description: NMDA potentiation was assessed using the whole cell patch clamp of mammalian cells which expressed NMDA receptors. Whole-Cell Patch Clamp of Mammalian Cells (Ionworks Barracuda (IWB) The whole-cell patch-clamp technique was used to investigate the effects of compounds on GlunN1/GluN2A glutamate receptors expressed in mammalian cells. […] Test article effects were evaluated in 8-point concentration-response format (4 replicate wells/concentration). […]

Solved cases below.
Mol: CC[C@]1(O)CC[C@@]2(C)C(=CC[C@H]3[C@@H]4CC[C@H]([C@H](C)CCC5(O)CCC(C)(C)CC5)[C@@]4(C)CC[C@@H]32)C1
Experimental Readout: activation at 3 µM
Result: 10 to 100%
//
Mol: C[C@H](CCC1(O)CCCC1)[C@H]1CC[C@H]2[C@@H]3CC=C4C[C@@](C)(O)CC[C@]4(C)[C@H]3CC[C@]12C
Experimental Readout: activation at 3 µM
Result: > 150%
//
Mol: C[C@H](CC[C@]1(O)CCOC1)[C@H]1CC[C@H]2[C@@H]3CC[C@H]4C[C@@](C)(O)CC[C@]4(C)[C@H]3CC[C@]12C
Experimental Readout: activation at 3 µM
Result: > 150%
//
Mol: CC[C@]1(O)CC[C@@]2(C)[C@@H](CC[C@@H]3[C@@H]2CC[C@]2(C)[C@@H]([C@H](C)CCC4(O)CCC(C)(C)CC4)CC[C@@H]32)C1
Experimental Readout: activation at 3 µM
Result: 10 to 100%

Qu. Fill in reported activation at 3 µM for this entry: C[C@H](CCC1(O)CCC(F)(F)CC1)[C@H]1CC[C@H]2[C@@H]3CC[C@H]4C[C@@](C)(O)CC[C@]4(C)[C@H]3CC[C@]12C
Ans. 10 to 100%
